Data provenance: patent US11028051B2

# system-name: BRD2-BD2 (Homo sapiens (Human))
# test-summary: competitive TR-FRET assay, BET-BD with acetylated peptide ligand
# Assay type: binding
# condition-info: BRD2-BD2; Table 11 additional modifications; read-out: 2.2 EC50
pEC50: −log10 of the molar value.
quantity-kind: pEC50

molecule	result
CC(=O)Nc1ccc(N[C@@H]2C[C@H](C)N(C(C)=O)c3ccc(-c4cccc(NC(C)=O)c4)cc32)cc1	6.57
CC(=O)N1c2ccc(-c3cc4ccccc4[nH]3)cc2[C@H](NC(=O)OC(C)C)C[C@@H]1C	5.85
CC(=O)Nc1cccc(-c2ccc3c(c2)[C@H](Nc2ccc(N(C)C(C)=O)cc2)C[C@H](C)N3C(C)=O)c1	6.70
CCCOc1cccc(-c2ccc3c(c2)[C@H](Nc2ccc(F)cc2OC)C[C@H](C)N3C(C)=O)c1	5.92
CC(=O)Nc1cccc(-c2ccc3c(c2)[C@H](NCc2ccc(C(F)(F)F)cc2)C[C@H](C)N3C(C)=O)c1	4.28

1. CCCN(CCC)c1cccc(-c2ccc3c(c2)[C@H](Nc2ccccc2OC(F)(F)F)C[C@H](C)N3C(C)=O)c1
2. CC(=O)N(C)c1cccc(-c2ccc3c(c2)[C@H](Nc2ccc(Cl)cc2)C[C@H](C)N3C(C)=O)c1
3. CCCCN(CCCC)c1cccc(-c2ccc3c(c2)[C@H](Nc2ccccc2OC(F)(F)F)C[C@H](C)N3C(C)=O)c1
4. CC(=O)Nc1cccc(-c2ccc3c(c2)[C@H](NC2CCCC2)C[C@H](C)N3C(C)=O)c1
Task: Sort the 4 molecules by pEC50; largest first, smallest last. Quick reminder: the answer is the labels in the order asked.
Output: 2, 4, 1, 3
(2: 6.85, 4: 5.62, 1: 5.24, 3: 5.02)

----------
# system-name: BRD4-BD2 (Homo sapiens (Human), UniProt O60885)
# test-summary: competitive TR-FRET assay, BET-BD with acetylated peptide ligand
# Assay type: binding
# condition-info: BRD4-BD2; Table 11 additional modifications; read-out: 4.2 EC50
quantity-kind: EC50 (nM)

line-notation	EC50 / nM
CC(=O)N1c2ccc(-c3cccc(N)c3)cc2[C@H](NC(=O)OC(C)C)C[C@@H]1C	640

1. CC(=O)Nc1cccc(-c2ccc3c(c2)[C@H](Nc2ccc4ncccc4c2)C[C@H](C)N3C(C)=O)c1
2. CC(=O)Nc1cccc(-c2ccc3c(c2)[C@H](NC2CCCC2)C[C@H](C)N3C(C)=O)c1
Task: Compare EC50: is it lower for 1 or for 2 ? Identify your selection by its label.
Output: 2

I. CC(=O)N1c2ccc(-c3cc4ccccc4o3)cc2[C@H](NC(=O)OC(C)C)C[C@@H]1C
II. CC(=O)N1c2ccc(-c3ccc(N(C)C)cc3)cc2[C@H](NC(=O)OC(C)C)C[C@@H]1C
Task: When their EC50 values are compared, which is larger, I or II ? Identify your selection by its label.
Output: I
(I: 41000 nM, II: 730 nM)

P. COC(=O)c1ccoc1-c1ccc2c(c1)[C@H](NC(=O)OC(C)C)C[C@H](C)N2C(C)=O
Q. CC(=O)Nc1cccc(-c2ccc3c(c2)[C@H](Nc2ccc4c(c2)COC4=O)C[C@H](C)N3C(C)=O)c1
Task: When their EC50 values are compared, which is larger, P or Q ? Identify your selection by its label.
Output: P

----------
# system-name: BRD2-BD2 (Homo sapiens (Human), UniProt P25440)
# Sequence (P25440 344-453): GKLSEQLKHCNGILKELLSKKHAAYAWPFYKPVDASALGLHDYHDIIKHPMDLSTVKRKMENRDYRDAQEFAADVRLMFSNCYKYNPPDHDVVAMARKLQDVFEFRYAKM
# test-summary: competitive TR-FRET assay, BET-BD with acetylated peptide ligand
# Format: binding
# condition-info: BRD2-BD2; Table 11 additional modifications; read-out: 2.2 EC50
pEC50: −log10 of the molar value.
quantity-kind: pEC50

compound	pEC50
CC(=O)N1c2ccc(-c3cccn(C)c3=O)cc2[C@H](NC(=O)OC(C)C)C[C@@H]1C [compound 87]	4.89

a. CC(=O)N1c2ccc(-c3cccc(NCCC(C)(C)C)c3)cc2[C@H](NC(=O)OC(C)C)C[C@@H]1C [compound 106]
b. CC(=O)N1c2ccc(-c3cccc(-n4cccn4)c3)cc2[C@H](Nc2ccccc2OC(F)(F)F)C[C@@H]1C [compound 140]
c. CC(=O)N1c2ccc(-c3ccc4cc[nH]c4c3)cc2[C@H](NC(=O)OC(C)C)C[C@@H]1C [compound 79]
Task: Sort the 3 compounds by pEC50; largest first, smallest last. Quick reminder: the answer is the labels in the order asked.
Output: b, c, a

I. CC(=O)N1c2ccc(-c3cccc(NCc4ccccc4)c3)cc2[C@H](NC(=O)OC(C)C)C[C@@H]1C [compound 117]
II. CCCCOc1cccc(-c2ccc3c(c2)[C@H](Nc2ccc(C(=O)OC)cc2)C[C@H](C)N3C(C)=O)c1 [compound 164]
Task: Compare pEC50: is it lower for I or for II ? Identify your selection by its label.
Output: II
(II: 6.66, I: 7.00)

----------
# system-name: BRD3-BD1 (Homo sapiens (Human), UniProt Q15059)
# Sequence (Q15059 34-140): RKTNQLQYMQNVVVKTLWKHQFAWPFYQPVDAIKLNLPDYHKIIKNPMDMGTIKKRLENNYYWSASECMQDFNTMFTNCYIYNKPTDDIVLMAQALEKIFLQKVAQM
# test-summary: competitive TR-FRET assay, BET-BD with acetylated peptide ligand
# Type: binding
# condition-info: BRD3-BD1; Table 11 additional modifications; read-out: 3.1 EC50
quantity-kind: EC50 (nM)

compound	quantity-kind	unit-label	result
CC(=O)Nc1cccc(-c2ccc3c(c2)[C@H](Nc2ccc4c(c2)COC4=O)C[C@H](C)N3C(C)=O)c1 [compound 12]	EC50	nM	590

a. CC(=O)N1c2ccc(-c3ccn(C)n3)cc2[C@H](Nc2ccccc2OC(F)(F)F)C[C@@H]1C [compound 172]
b. CC(=O)Nc1cccc(-c2ccc3c(c2)[C@H](Nc2ccc(C#N)cc2)C[C@H](C)N3C(C)=O)c1 [compound 29]
c. COC(=O)c1cccc(N[C@@H]2C[C@H](C)N(C(C)=O)c3ccc(-c4cccc(NC(C)=O)c4)cc32)c1 [compound 7]
Task: Sort the 3 compounds by EC50; largest first, smallest last. Quick reminder: the answer is the labels in the order asked.
Output: a, c, b
(a: 12000 nM, c: 1600 nM, b: 260 nM)

----------
# system-name: BRD4-BD1 (Homo sapiens (Human), UniProt O60885)
# test-summary: competitive TR-FRET assay, BET-BD with acetylated peptide ligand
# Format: binding
# condition-info: BRD4-BD1; Table 11 additional modifications; read-out: 4.1 EC50
quantity-kind: EC50 (µM)

compound	result
CC(=O)Nc1cccc(-c2ccc3c(c2)[C@H](Nc2cccc4ncccc24)C[C@H](C)N3C(C)=O)c1	0.59
CC(=O)Nc1cccc(-c2ccc3c(c2)[C@H](NC(=O)c2ccc(C(F)(F)F)cc2)C[C@H](C)N3C(C)=O)c1	74
CCCCOc1cccc(-c2ccc3c(c2)[C@H](Nc2ccc(C(=O)OC)cc2)C[C@H](C)N3C(C)=O)c1	57

P. CC(=O)Nc1ccc(N[C@@H]2C[C@H](C)N(C(C)=O)c3ccc(-c4cccc(NC(C)=O)c4)cc32)cc1
Q. CC(=O)N1c2ccc(-c3cccc(NCCC(C)C)c3)cc2[C@H](NC(=O)OC(C)C)C[C@@H]1C
R. CC(=O)N1c2ccc(-c3cccc(NCC4CCOC4)c3)cc2[C@H](NC(=O)OC(C)C)C[C@@H]1C (stereo partly shown)
Task: Arrange these 3 compounds in increasing order of EC50. Quick reminder: the answer is the labels in the order asked.
Output: R, P, Q

----------
# system-name: BRD2-BD2 (Homo sapiens (Human), UniProt P25440)
# test-summary: competitive TR-FRET assay, BET-BD with acetylated peptide ligand
# Assay type: binding
# condition-info: ratio of BRD2-BD1 EC50 to BRD2-BD2 EC50 (selectivity)
# Experimental: Inhibitor potency was determined using a competitive TR-FRET assay as detailed herein, measuring interaction of the respective BET-BD with an acetylated peptide ligand (Table 2).
quantity-kind: 2.1/2.2

Examples with answers:
compound	result
COc1ccccc1-c1ccc2c(c1)[C@H](NC(=O)OC(C)C)C[C@H](C)N2C(C)=O [compound 60]	5.3
CC(=O)N1c2ccc(-c3cc[nH]n3)cc2[C@H](Nc2ccccc2Cl)C[C@@H]1C [compound 203]	51
CC(=O)Nc1cccc(-c2ccc3c(c2)[C@H](Nc2ccc(C#N)c(F)c2)C[C@H](C)N3C(C)=O)c1 [compound 193]	63
COc1cc(C#N)ccc1N[C@@H]1C[C@H](C)N(C(C)=O)c2ccc(-c3cccc(NC(C)=O)c3)cc21 [compound 189]	48
CC(=O)N1c2ccc(-c3cccc(NCCC(C)C)c3)cc2[C@H](NC(=O)OC(C)C)C[C@@H]1C [compound 100]	7.3

a. CC(=O)Nc1cccc(-c2ccc3c(c2)[C@H](Nc2cc(F)c(C#N)c(F)c2)C[C@H](C)N3C(C)=O)c1 [compound 190]
b. CC(=O)N1c2ccc(-c3cccc(NCCC(F)(F)F)c3)cc2[C@H](Nc2ccccc2OC(F)(F)F)C[C@@H]1C [compound 153]
c. CCOC(=O)c1ccc(-c2ccc3c(c2)[C@H](NC(=O)OC(C)C)C[C@H](C)N3C(C)=O)o1 [compound 83]
Task: Arrange these 3 compounds in increasing order of 2.1/2.2. Quick reminder: the answer is the labels in the order asked.
Output: c, b, a
(c: 1.7, b: 8.2, a: 37)

a. CC(=O)Nc1cccc(-c2ccc3c(c2)[C@H](Nc2ccc(S(=O)(=O)N(C)C)cc2)C[C@H](C)N3C(C)=O)c1 [compound 175]
b. CC(=O)N1c2ccc(-c3cccc(NC(=O)C4CCC(C)CC4)c3)cc2[C@H](NC(=O)OC(C)C)C[C@@H]1C (some centres unmarked) [compound 102]
Task: Compare 2.1/2.2: is it lower for a or for b ? Identify your selection by its label.
Output: a

I. CC(=O)N1c2ccc(-c3cccc(NC(=O)OC(C)(C)C)c3)cc2[C@H](Nc2ccc(Cl)cc2)C[C@@H]1C [compound 134]
II. CCCOc1cccc(-c2ccc3c(c2)[C@H](Nc2ccc(F)cc2OC)C[C@H](C)N3C(C)=O)c1 [compound 168]
Task: Compare 2.1/2.2: is it lower for I or for II ? Identify your selection by its label.
Output: I
(I: 36, II: 99)

A. CCCCCN(CCCCC)c1cccc(-c2ccc3c(c2)[C@H](Nc2ccccc2OC(F)(F)F)C[C@H](C)N3C(C)=O)c1 [compound 150]
B. COC(=O)c1ccoc1-c1ccc2c(c1)[C@H](NC(=O)OC(C)C)C[C@H](C)N2C(C)=O [compound 82]
Task: When their 2.1/2.2 values are compared, which is larger, A or B ? Identify your selection by its label.
Output: A
(A: 13, B: 6.0)
